Test system: WM-115 cells
ASSAY_METHOD_TEXT: MTT cytotoxicity assay, WM-115
Assay type: cell-based, human
SETTINGS: Homo sapiens, WM-115, MTT, 46 h + 2 h incubation
METRIC_NAME: IC50

- O=c1c(O)c(-c2ccc(O)c(O)c2)oc2cc(O)cc(O)c12 [Quercetin, reference compound]: 178 µM

---

Tested on: NALM-6 cells
ASSAY_METHOD_TEXT: MTT cytotoxicity assay, NALM-6
Type: cell-based, human
SETTINGS: Homo sapiens, NALM-6, MTT, 46 h + 2 h incubation
METRIC_NAME: IC50 (µM)

* O=c1c(O)c(-c2ccc(O)c(O)c2)oc2cc(O)cc(O)c12 [Quercetin, reference compound] | 77.1
* O=C1CCOc2ccccc21 [Compound 4-Chromanone, 4-Chromanone, reference compound] | 674

These entries and their values trace back to paper PMC7180617.
